The molecules below each have a reported IC50 tested on Tyrosine-protein kinase JAK2 (Homo sapiens, UniProt O60674); the values come from various publications.
endpoint name: IC50 (nM)

(A) C[C@H]1C[C@@H](Oc2ccc(-c3ncnc(Nc4ccc(N5CCN(C6COC6)CC5)cc4)n3)cc2C#N)CCN1C(=O)c1cnn[nH]1
(B) O=C(Nc1ccc2cnccc2n1)[C@@H]1CC1c1ccc(S(=O)(=O)Nc2ccccn2)cc1 (mixture of isomers)
(C) O=C(NCCN1CCOCC1)c1ccc(-c2cnc3ccc(NCc4cc(F)ccc4F)nn23)cc1
Query: Put the listed items above in order, lowest IC50 first. Response field: labels, in requested order.
Response: C, B, A
(C: 8 nM, B: 22 nM, A: 224 nM)
